Values from ChEMBL document CHEMBL1128427

Entries and their pKi values follow.
System: Jurkat
Measurement protocol: Binding affinity was measured on jurkat cell membrane using [3H3C] as radioligand
Format: functional, cell membranes, Homo sapiens
Give only the number. pKi is defined as minus log10 of concentration in molar units.

Guide cases for pKi, answers given:
Request: Recorded pKi for "COc1ccc(Cn2cc3c(c2SC)c(=O)n(C)c(=O)n3CC(C)C)cc1" , please?
Result: 6.52

Request: pKi for "COc1ccc(Cn2cc3c(c2CN2CCOCC2)c(=O)n(C)c(=O)n3CC(C)C)cc1" ?
Result: 6.50

Request: Need pKi, item "CC(C)Cn1c(=O)n(C)c(=O)c2cn([C@@H](C)c3ccccc3)cc21"
Result: 6.52

Request: Recorded pKi for "CC(C)Cn1c(=O)n(C)c(=O)c2c(SCCCO)n(Cc3cccc4ccccc34)cc21" , please?
Result: 8.96

Request: I'd like to know its pKi. The molecule in question is "COc1ccc(Cn2cc3c(=O)n(C)c(=O)n(CC(C)C)c3c2)c(OC)c1"
Result: 7.06

Request: # input molecule: "CC(C)Cn1c(=O)n(C)c(=O)c2cn([C@H](C)c3ccccc3)cc21" ; wanted: its pKi
Result: 6.25

Request: Could you share which pKi value was measured for "CC(C)n1c(=O)n(C)c(=O)c2cn(Cc3cccc4ccccc34)cc21" ?
Result: 7.82

Request: So what's the measured pKi for this one? CC(O)Cn1c(=O)n(C)c(=O)c2cn(Cc3cccc4ccccc34)cc21 (stereo not given)
Result: 6.16

Request: // returns reported pKi for input CC(C)Cn1c(=O)[nH]c(=O)c2cn(C3Cc4cccc5cccc3c45)cc21 (stereo not given)
Result: 6.34

// moving on: another record for pKi
Request: Look up pKi for this molecule: "CC(C)Cn1c(=O)n(C)c(=O)c2cn(C3Cc4ccccc4C3)cc21"
Result: 8.32

----------
Measurement protocol: Inhibition of nuclear factor of activated T-cells (NFAT) mediated transcription of beta-galactosidase in J.NFATZ.1 cells
Format: functional, cell-based, T-cell
Conditions used: t-cell
IC50 listing for selected compounds.
# output: bare number, implied unit nM

Solved entries:
Request: Requested read-out: IC50. Entry: CCC(C)n1c(=O)n(C)c(=O)c2cn(C3Cc4cccc5cccc3c45)cc21 (stereo in doubt; 5g)
Result: 5.4

Request: I am curious: what IC50 value has been reported for CCC(C)n1c(=O)n(C)c(=O)c2cn(C3Cc4cccc5cccc3c45)cc21 (stereo in doubt; 5g4) ?
Result: 48

Further cases:
Request: Would you mind telling me what IC50 value was observed for CCC(C)n1c(=O)n(C)c(=O)c2cn(C3Cc4cccc5cccc3c45)cc21 (stereo in doubt; 5g3) ?
Result: 17
